All figures here come from patent US20110251212A1.

- measured.on: NMDA Receptor (NR1/NR2B Receptor) (Rattus norvegicus, UniProt P35439+Q00960)
- Construct: this was used as a membrane specimen in an experiment; from tissue; host or cells: rat cerebral cortex membranes
- Sequence (Q00960 27-1482, other chains not shown): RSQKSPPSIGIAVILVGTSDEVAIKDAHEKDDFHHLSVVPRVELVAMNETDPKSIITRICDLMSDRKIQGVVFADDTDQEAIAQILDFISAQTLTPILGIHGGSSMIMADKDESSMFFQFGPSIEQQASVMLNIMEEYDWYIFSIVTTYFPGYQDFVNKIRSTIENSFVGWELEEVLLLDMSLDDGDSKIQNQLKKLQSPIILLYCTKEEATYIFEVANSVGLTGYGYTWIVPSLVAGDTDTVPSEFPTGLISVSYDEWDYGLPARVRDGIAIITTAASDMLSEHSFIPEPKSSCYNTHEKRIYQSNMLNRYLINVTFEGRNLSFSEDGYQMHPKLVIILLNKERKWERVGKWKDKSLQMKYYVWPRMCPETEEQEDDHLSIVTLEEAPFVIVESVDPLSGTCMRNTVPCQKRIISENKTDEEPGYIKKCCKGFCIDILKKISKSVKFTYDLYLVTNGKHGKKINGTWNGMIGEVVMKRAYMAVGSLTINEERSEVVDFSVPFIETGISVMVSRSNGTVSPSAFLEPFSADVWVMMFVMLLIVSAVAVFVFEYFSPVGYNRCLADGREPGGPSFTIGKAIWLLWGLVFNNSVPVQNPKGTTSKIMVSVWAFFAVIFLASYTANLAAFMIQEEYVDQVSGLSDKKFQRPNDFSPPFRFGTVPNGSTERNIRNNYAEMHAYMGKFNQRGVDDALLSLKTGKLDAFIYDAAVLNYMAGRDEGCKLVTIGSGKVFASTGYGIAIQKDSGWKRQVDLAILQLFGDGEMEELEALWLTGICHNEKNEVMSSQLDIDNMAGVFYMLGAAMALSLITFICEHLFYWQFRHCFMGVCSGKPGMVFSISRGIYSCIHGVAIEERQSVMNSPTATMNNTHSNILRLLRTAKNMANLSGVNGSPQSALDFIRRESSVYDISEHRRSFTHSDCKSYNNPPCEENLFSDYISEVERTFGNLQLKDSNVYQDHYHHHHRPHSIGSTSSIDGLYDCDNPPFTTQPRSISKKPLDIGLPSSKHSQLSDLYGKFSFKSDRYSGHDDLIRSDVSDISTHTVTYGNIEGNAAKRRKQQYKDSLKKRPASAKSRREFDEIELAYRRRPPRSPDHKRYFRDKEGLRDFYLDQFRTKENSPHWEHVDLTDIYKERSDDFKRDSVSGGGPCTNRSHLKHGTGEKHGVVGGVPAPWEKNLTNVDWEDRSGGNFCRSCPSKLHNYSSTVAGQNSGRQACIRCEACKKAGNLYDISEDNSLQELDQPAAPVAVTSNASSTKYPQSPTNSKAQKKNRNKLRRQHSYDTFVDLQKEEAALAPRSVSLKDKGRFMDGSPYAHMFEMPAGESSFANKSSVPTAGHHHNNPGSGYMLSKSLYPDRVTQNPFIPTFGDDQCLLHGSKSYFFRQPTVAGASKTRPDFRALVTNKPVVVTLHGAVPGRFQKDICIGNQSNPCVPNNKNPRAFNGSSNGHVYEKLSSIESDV
- test.method.notes: Experiment of binding to NMDA receptor (NR1/NR2B receptor), [3H]-Ifenprodil competition, rat cerebral cortex membrane
- experimental.context: [3H]-Ifenprodil 5 nM, GBR-12909 3 μM, ice temperature 120 minutes
- Protocol: Using Ifenprodil which is a NR1/NR2B subtype receptor-specific antagonist as a ligand, an experiment of receptor competition with a test compound was performed. A male Slc:Wistar rat was used as an animal, a decapitated brain was isolated, and cerebral cortex was fractionated. The cerebral cortex was homogenized with a 20-fold amount of an ice-cooled 50 mM Tris/HCl buffer (pH 7.4), and centrifuged at 4° C. and 27,500×g for 10 minutes. […]
endpoint: IC50 (µM)
I only need the number, in µM, no unit after it.

Data request, read-out IC50, for `Cc1ccc(N2CCN(C(=O)C(=O)Nc3ccc4[nH]c(=O)oc4c3)[C@H](C)C2)cc1Cl` 0.041

Entry `CC[C@@H]1CN(C(=O)C(=O)Nc2ccc3[nH]c(=O)oc3c2)CCN1c1ccc(Cl)cc1` has what IC50? 0.09

Suppose we examine the molecule `C[C@@H]1CN(c2ccc(Cl)cc2)CCN1CC(=O)Nc1ccc2[nH]c(=O)oc2c1` ; what IC50 value has been reported? 0.134
